Overview of reported Human NPR1 Amax (% of ANP) across a group of molecules:
TARGET ENTITY: human NPR1 (Homo sapiens)
Construct: host or cells: CHO-K1
Sequence (P16066 33-1061): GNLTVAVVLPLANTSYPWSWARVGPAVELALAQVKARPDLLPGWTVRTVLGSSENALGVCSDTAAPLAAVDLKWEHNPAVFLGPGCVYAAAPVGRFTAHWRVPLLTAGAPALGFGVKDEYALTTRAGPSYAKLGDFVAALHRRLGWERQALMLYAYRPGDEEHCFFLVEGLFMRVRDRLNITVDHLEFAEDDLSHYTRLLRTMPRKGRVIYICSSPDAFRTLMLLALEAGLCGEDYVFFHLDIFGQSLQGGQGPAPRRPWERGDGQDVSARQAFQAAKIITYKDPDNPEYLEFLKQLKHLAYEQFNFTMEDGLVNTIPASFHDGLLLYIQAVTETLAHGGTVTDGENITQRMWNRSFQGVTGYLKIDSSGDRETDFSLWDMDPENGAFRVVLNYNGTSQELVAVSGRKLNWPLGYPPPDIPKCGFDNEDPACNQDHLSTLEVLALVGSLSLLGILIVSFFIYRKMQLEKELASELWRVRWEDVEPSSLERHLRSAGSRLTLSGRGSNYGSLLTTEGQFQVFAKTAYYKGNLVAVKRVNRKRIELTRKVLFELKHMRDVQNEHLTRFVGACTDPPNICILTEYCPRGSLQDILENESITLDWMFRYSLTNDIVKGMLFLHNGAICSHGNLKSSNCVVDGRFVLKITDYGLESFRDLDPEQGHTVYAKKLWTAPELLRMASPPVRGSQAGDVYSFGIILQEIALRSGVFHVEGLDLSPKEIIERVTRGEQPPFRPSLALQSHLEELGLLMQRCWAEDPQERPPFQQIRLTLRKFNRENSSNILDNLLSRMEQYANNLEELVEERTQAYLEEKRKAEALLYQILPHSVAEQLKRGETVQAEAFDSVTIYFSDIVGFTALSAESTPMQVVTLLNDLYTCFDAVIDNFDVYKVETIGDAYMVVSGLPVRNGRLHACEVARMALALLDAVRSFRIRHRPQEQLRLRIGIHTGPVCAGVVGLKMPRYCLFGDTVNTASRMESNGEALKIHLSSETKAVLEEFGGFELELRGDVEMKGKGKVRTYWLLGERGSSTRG
ASSAY SUMMARY: Cellular cGMP production assay, human NPR1 expressing CHO-K1 cells (CisBio HTRF)
Assay type: cell-based
MEASUREMENT SETUP: maximum cGMP production as percentage of the maximum cGMP produced with ANP
ASSAY READOUT: Human NPR1 Amax (% of ANP)

{"MOLECULE": "CC[C@@H](Nc1nc2c(c(N[C@@H](CN3CCCCCC3)c3cnn(C)c3)n1)C[C@H](c1ccccc1)CC2)[C@H]1CC[C@H](C(=O)O)CC1 [Compound 51]", "RESULT": "106.105 % of ANP"}
{"MOLECULE": "CC[C@H]([C@H]1CC[C@H](C(=O)O)CC1)N(C)c1nc2c(c(N[C@@H](CN3CCCCC3)c3cnn(C)c3)n1)C[C@H](c1ccccc1)CC2 [Compound 118]", "RESULT": "94.446 % of ANP"}
{"MOLECULE": "CC[C@H]([C@H]1CC[C@H](C(=O)O)CC1)N(C)c1nc2c(c(N[C@@H](CN3CC[C@@H](OC)C3)c3cnn(C)c3)n1)C[C@H](c1ccccc1)CC2 [Compound 181]", "RESULT": "101.57 % of ANP"}
{"MOLECULE": "C[C@@H](Nc1nc2c(c(N[C@@H](CN3C4CCCC3CCC4)c3cnn(C)c3)n1)C[C@H](c1ccccc1)CC2)c1ccc(C(=O)O)c(F)c1 [Compound 168]", "RESULT": "96.777 % of ANP"}
{"MOLECULE": "CC[C@H]([C@H]1CC[C@H](C(=O)O)CC1)N(C)c1nc2c(c(N[C@@H](CN3CCC[C@H](C)C3)c3cnn(C)c3)n1)CN(C1CCCCC1)CC2 [Compound 152]", "RESULT": "104.537 % of ANP"}
